Hey, just so you know, these numbers are from paper PMC5742231.

- System: Bacteriophage ΔTOX:GFP (ϕΔTOX:GFP)
- Format: cell-based
Measured quantity: bacteriophage inactivation activity (in words)

{"Construct sequence": "MVVFSVPKFKSTVAKLLSSA [Random peptide, reference compound]", "Result": "no inactivation activity"}
{"Construct sequence": "ILRWPWWPWRRK [Omiganan, reference compound]", "Result": "no inactivation activity"}
